Ref: patent US20230255975A1

System: K12PE cell line
Experiment: Proliferation assay
Format: cell-based
Conditions: 72 h; K12PE; Day 3 post treatment; NEK2 inhibitor; read-out: IC50 concentration, proliferation
Protocol: Proliferation and viability assays: Cell growth curves were determined by monitoring the viability of cells with Trypan blue exclusion on a Vi-Cell-XR (Becton Dickinson, Franklin Lakes, N.J., USA). Proliferation assays were performed in triplicate at least three times (n=3) using (3H)-thymidine incorporation. All data were plotted and analyzed using GraphPad Prism 7 (GraphPad Software, La Jolla, Calif., USA) software, represented as the mean with an error determined as ±s.d. […]
value.kind: IC50 (µM)

>>> measured_value("CC(/C=C\\C(F)(F)F)Oc1cc(-c2cc(-c3cc(CN(C)C)cs3)cnc2N)ccc1C(N)=O (racemic) [Rac-CCT 250863]")
8.7
>>> measured_value("C#CC(=O)Nc1ccc2c(c1)/C(=C/c1[nH]c(CC)nc1C)C(=O)N2 [JH295]")
4
